Entries and their max response values follow.
- ASSAY_SUMMARY: qHTS Assay for Lipid Storage Modulators (AID 1519)
- APPLIED_CONDITIONS: Drosophila S3 cells, BODIPY lipid droplet/cell ratio, laser cytometry; measured here: lipid channel max response; cells loaded with oleic acid
Inconclusive results are not listed.
API: value field is a number in %; no unit string.

C[C@](N)(C(=O)O)c1ccc(-c2nn[nH]n2)cc1; 14.3

Which max response reading was recorded for the molecule CC(=O)O[C@H](CC(=O)O)C[N+](C)(C)C ?
18.1

Quick one: CCCN=C(N)NCCC[C@H](N)C(=O)O
-20.5

Quick one: CN1[C@H](CC(=O)c2ccccc2)CCC[C@H]1C[C@H](O)c1ccccc1
29.8

Quick one: CN(C)CCCSc1ccccc1NC(=O)/C=C\c1ccccc1
23.1

Quick one: CCNCCCNCCCCNCCCNCC
18.1

###

- ASSAY_SUMMARY: HPAF-II Cancer Cell Toxicity qHTS against the NCATS CANVASS Library (AID 1347346); also: nearly all actives have a fitted effect of over 55% in size; also: potency is read from the fitted curve at half-maximal effect
- APPLIED_CONDITIONS: HPAF-II viability, CellTiter-Glo ATP luminescence, 72 h; series mostly up to 38.3 µM
Records with an inconclusive call do not appear. The source made the active and inactive calls. Calls follow the shape of the dose curve; as a rule, active = well fitted cell-killing curve with a large enough effect; inconclusive = small, poorly fitted or top-dose-only effect; inactive = flat fitted curve, though single readings scatter. Peptide text beside a SMILES is read from it. * marks the point of attachment. Octanoyl = CCCCCCCC(=O)*
ASSAY_METRIC: Potency

CN1C(=O)C2C(N=CN2C)N(C)C1=O (stereo not drawn); inactive
CCCCCCCC(=O)N[C@@H](CC(C)C)C(=O)N[C@H](C=O)CCC(=O)O (Octanoyl-Leu-Glu-aldehyde); inactive
CNc1ccc(Cl)cc1C(=O)OC[C@]1(C)[C@H]2CC[C@]3(C)[C@@H](C[C@@H](OC)[C@H](C)[C@H]3C3=C(O)C(=O)OC3O)[C@]2(C)CC[C@H]1O (stereo partly drawn); inactive
C[C@@H](CCC[C@]1(C)C(=O)C=C[C@]23C[C@H]4C[C@H](O[C@@]4(C)C2)C31)C(=O)N[C@@H](CO)C(=O)O (stereo partly drawn); inactive
C=C[C@]1(C)CC[C@@H]([C@H](C)C(=O)OCC)O1; inactive
C=C1C(=O)C[C@H]2C[C@@H]1[C@]2(C)CCC=C(C)C; inactive

Which Potency reading was recorded for the compound C=C1C(=O)O[C@H]2C[C@H](C)[C@@H]3CC(=O)C(C)=C3[C@H](O)[C@H]12 ?
13.3 µM (active)

Quick one: O=C(O)[C@@]12CO[C@@]3(O)C4CCN(CC[C@H]31)[C@H]4c1c2[nH]c2ccccc12
inactive

###

- TEST_SYSTEM: Ubiquitin carboxyl-terminal hydrolase 1 (Homo sapiens) (UniProt O94782)
- Sequence (O94782 whole entry, looked up): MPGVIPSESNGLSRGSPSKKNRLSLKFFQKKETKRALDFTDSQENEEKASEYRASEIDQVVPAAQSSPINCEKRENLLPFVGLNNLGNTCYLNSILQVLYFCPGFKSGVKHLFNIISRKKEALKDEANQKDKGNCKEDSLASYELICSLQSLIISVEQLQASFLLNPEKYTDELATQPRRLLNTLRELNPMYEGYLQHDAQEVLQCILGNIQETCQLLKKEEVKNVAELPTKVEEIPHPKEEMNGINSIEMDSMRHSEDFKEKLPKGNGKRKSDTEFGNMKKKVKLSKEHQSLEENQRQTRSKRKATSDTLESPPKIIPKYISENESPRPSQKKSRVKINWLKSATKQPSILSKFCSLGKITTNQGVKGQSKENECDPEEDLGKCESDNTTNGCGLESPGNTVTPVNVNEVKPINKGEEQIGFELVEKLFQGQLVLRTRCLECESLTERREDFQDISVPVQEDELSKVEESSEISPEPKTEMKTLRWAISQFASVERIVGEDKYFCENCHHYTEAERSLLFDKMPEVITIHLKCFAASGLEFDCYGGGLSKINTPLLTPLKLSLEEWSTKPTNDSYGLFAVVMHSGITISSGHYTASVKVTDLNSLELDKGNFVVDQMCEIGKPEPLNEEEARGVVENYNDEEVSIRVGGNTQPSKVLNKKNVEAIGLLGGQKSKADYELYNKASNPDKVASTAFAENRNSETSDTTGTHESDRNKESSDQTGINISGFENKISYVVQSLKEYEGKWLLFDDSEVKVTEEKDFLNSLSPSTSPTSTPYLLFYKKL
- ASSAY_SUMMARY: Inhibitors of USP1/UAF1: Pilot qHTS (AID 504865); also: nearly all actives have a fitted effect of over 35% in size
- APPLIED_CONDITIONS: purified USP1/UAF1, Ub-rhodamine cleavage fluorescence; series mostly up to 114 µM
Inconclusive results are not listed. Activity calls are given as the source filed them. The call rests on the fitted dose curve; in most records, active means well fitted inhibition curve with a large enough effect; inconclusive means small, poorly fitted or top-dose-only effect; inactive means flat fitted curve, though single readings scatter.
// allowed return values: active, inactive

Here are 3 molecules together with their reported answers.
Cc1cc(C)cc(C(=O)N(C)[C@H](Cc2ccc(-c3ccccc3)cc2)C(=O)N[C@@H](Cc2c[nH]c3ccccc23)C(=O)O)c1; active
N[C@@H](C(=O)O)c1ccc(P(=O)(O)O)cc1; inactive
O=C(O)c1nc2cc(Cl)c(Cl)cc2[nH]c1=O; inactive

# lookup: test call for CC(=O)ON(C(C)=O)S(=O)(=O)c1ccc(Cl)cc1
inactive

Quick one: Cc1cc(Cn2cnc3c2C[C@@H](C(=O)O)N(C(=O)C(c2ccccc2)c2ccccc2)C3)ccc1N(C)C
inactive

Quick one: N[C@H](C(=O)O)[C@H](OCc1ccccc1)C(=O)O
inactive

Quick one: Cc1sc(N)c(C(=O)c2cccc(C(F)(F)F)c2)c1C
active

Quick one: c1cc2c3c(c1)c1c(n3CCNC2)CCCC1
inactive

Quick one: O=C(OC1Cc2c(O)cc(O)cc2OC1c1cc(O)c(O)c(O)c1-c1c(C2Oc3cc(O)cc(O)c3CC2O)cc(O)c(O)c1O)c1cc(O)c(O)c(O)c1 (stereo not given)
active

Quick one: N[C@@H](CO)C(=O)O
inactive

Quick one: CCN(CC)c1ncnc2c1ncn2[C@@H]1O[C@@H](COP(=O)(O)OP(=O)(O)C(Br)(Br)P(=O)(O)O)[C@H](O)[C@H]1O
inactive

Quick one: O=C1CC[C@H](N2C(=O)c3ccccc3C2=O)C(=O)N1
inactive

Quick one: C[C@H](CCC(=O)O)[C@H]1CC[C@H]2[C@H]3C(CC[C@]12C)[C@@]1(C)CC[C@@H](O)C[C@H]1C[C@H]3O (stereo not given in full)
inactive

Quick one: C[C@@]12C(=O)OC(=O)[C@@]1(C)[C@@H]1CC[C@@H]2O1
inactive

Quick one: O=C(c1ccc(F)cc1)C1CCN(CCCCc2ccccc2)CC1
inactive
